Measured cell growth, listed per entry for reference.
# System: OVCAR-3-derived ovarian cancer stem-like cells (spheroids)
# ASSAY TEXT: cell growth relative to untreated control; higher = more growth (less inhibition)
# CONDITION PARAMETERS: 2.29 µM; 96 h
# number only, unit % dropped from output

Solved entries (count: 2):
CC[C@]1(O)C[C@@H]2CN(CCc3c([nH]c4ccccc34)[C@@](C(=O)OC)(c3cc4c(cc3OC)N(C)[C@H]3[C@@](O)(C(=O)OC)[C@H](OC(C)=O)[C@]5(CC)C=CCN6CC[C@]43[C@@H]65)C2)C1; 49.1
Oc1cc2c3c(c1)c1cc4c(cc1c[n+]3CC2)OCO4; 97.7

Q: Which cell growth is reported for this compound? Cc1ccccc1OCC(COC(=O)Nc1ccccc1)OC(=O)Nc1ccccc1 (centres undefined)
Result: 111

Q: Look at this compound and give its reported cell growth. O=C(CC(O)(C(F)(F)F)C(F)(F)Cl)CC(O)(C(F)(F)F)C(F)(F)Cl (centres undefined)
Result: 66.8

Q: Form field: reported cell growth of CC(C)(C)c1ccc(O)c(CN(Cc2cc(C(C)(C)C)ccc2O)C2CCCCC2)c1
Result: 145
